System: ORYSAT (Rice, Tebonnet)
test: Preemergence herbicidal evaluation
Type: in vivo, Oryza sativa, (L.) Tebonnet
setupConditions: rate 0.2500 kg/ha; rated 4-5 weeks after treatment; rating scale 0-9
From the text: Results of herbicide evaluation are expressed on a rating scale (0-9). The scale is based upon a visual observation of plant stand, vigor, malformation, size, chlorosis and overall plant appearance as compared with a control. […] The compounds evaluated are reported by compound number given in Example 37.
The entries below are paired with their reported Preemergence herbicidal rating ORYSAT.
Please state the value as a number alone, without comment.

Example entries begin here.
1. Cn1c(C(F)(F)F)cc(=O)n(-c2cc(N=C3SCC(=O)N3Cc3cc(Cl)cc(Cl)c3)c(Cl)cc2F)c1=O; 1.0
2. Cn1c(C(F)(F)F)cc(=O)n(-c2cc(N=C3SCC(=O)N3Cc3ccccn3)c(Cl)cc2F)c1=O; 0.0

Now look at this one.
QUERY: Need Preemergence herbicidal rating ORYSAT of C=C1SC(=Nc2cc(-n3c(=O)cc(C(F)(F)F)n(C)c3=O)c(F)cc2Cl)N(CC(=O)OCC)C1=O , thanks.
RESULT: 9.0
